Test system: A-375
Assay procedure: Inhibition of cell growth in (A375) melan cell line
Assay type: functional, cell-based
Conditions: Homo sapiens
Measured parameter: pIC50
The read-out pIC50 is expressed as -log10 of concentration in moles per litre.

Given item N#CC1CN1C(=O)NC1CCCCC1 (centres undefined) , the value recorded as its pIC50 is 4.46

The molecule listed as N#CC1CN1C(=O)Nc1cccc2ccccc12 (centres undefined) shows pIC50 equal to 5.38

// field: pIC50; key: N#CC1CN1C(=O)Nc1ccccc1 (centres undefined) ; value = 4.96

// pIC50 lookup, molecule = N#CC1CN1C(=O)NCc1ccccc1 (centres undefined) , result: 4.96
